target: UniProt P29466; experiment: Binding affinity towards IL-1 beta converting enzyme (ICE)
Sequence (P29466 120-297 limits assumed): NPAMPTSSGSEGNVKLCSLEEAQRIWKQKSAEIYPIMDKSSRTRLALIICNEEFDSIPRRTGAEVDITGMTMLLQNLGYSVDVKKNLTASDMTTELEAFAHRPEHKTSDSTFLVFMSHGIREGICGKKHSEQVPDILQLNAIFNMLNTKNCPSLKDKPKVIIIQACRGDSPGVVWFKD
Sequence (P29466 317-404 limits assumed): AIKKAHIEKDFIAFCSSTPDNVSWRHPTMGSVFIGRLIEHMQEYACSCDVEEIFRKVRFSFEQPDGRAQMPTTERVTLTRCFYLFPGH
Peptide text beside a SMILES is read from it.
quantity: Ki (µM)
Quick note: give the figure in µM, leave out the unit.

{"molecule": "CC(=O)N[C@@H](Cc1ccccc1)C(=O)N[C@H](C(=O)N[C@@H](C)C(=O)N[C@H](C=O)CC(=O)O)C(C)C (Ac-FVAD-aldehyde)", "Ki / µM": 0.042}

Request: Endpoint output: Ki of CC(=O)N[C@H](C(=O)N[C@@H](C)C(=O)N[C@H](C=O)CC(=O)O)C(C)C (Ac-Val-Ala-Asp-aldehyde) . Value?
Result: 1.7
